Below is a list of entries, each paired with its recorded fold increase value.
Tested on: BVDV NADL virus
assay_summary: CPE-based antiviral assay, BVDV NADL in MDBK cells (MTS/PMS)
condition_notes: sheet CSFCII#; potency relative to TO502-2403 (EC50 0.2 µM)
readout_type: fold increase

smiles_record: O=C(Nc1ccn(-c2ccccc2)n1)c1cc(-c2ccccc2Cl)nc2ccccc12
observed_measurement: 0.50

smiles_record: O=C(Nc1ccn(-c2cccc(F)c2)n1)c1cc(-c2cccnc2)nc2ccccc12
observed_measurement: 0.002

smiles_record: Cc1cccc2sc(NC(=O)c3cc(-c4cc(Cl)sc4Cl)nc4ccccc34)nc12
observed_measurement: 0.67

smiles_record: Cc1noc(C)c1NC(=O)c1cc(-c2ccco2)nc2ccccc12
observed_measurement: 0.00585

---

System: BVDV NADL virus
assay_summary: CPE-based antiviral assay, BVDV NADL in MDBK cells (MTS/PMS)
condition_notes: Bovine viral diarrhea virus isolates and strains, MDBK, 72 h
pEC50: −log10 of the molar value.
Catalogue of pEC50 values
readout_type: pEC50

smiles_record: O=C(Nc1nc2cc(Cl)ccc2o1)c1cc(-c2ccccc2)nc2ccccc12
target: BVDV NADL virus
relation_operator: <
observed_measurement: 4.00

smiles_record: Cc1cccc2sc(NC(=O)c3cc(-c4cc(Cl)sc4Cl)nc4ccccc34)nc12
target: BVDV NADL virus
relation_operator: =
observed_measurement: 6.52

smiles_record: Cc1cccc2sc(NC(=O)c3cc(-c4cccc(F)c4)nc4ccccc34)nc12
target: BVDV NADL virus
relation_operator: =
observed_measurement: 4.60

smiles_record: COc1ccc2nc(NC(=O)c3cc(-c4ccco4)nc4ccc(F)cc34)sc2c1
target: BVDV NADL virus
relation_operator: =
observed_measurement: 4.73

smiles_record: Cc1cccc2sc(NC(=O)c3cc(-c4ccco4)nc4ccc(C(F)(F)OF)cc34)nc12
target: BVDV NADL virus
relation_operator: =
observed_measurement: 5.60

smiles_record: Cc1cccc2sc(NC(=O)c3cc(-c4cccs4)nc4ccc(Br)cc34)nc12
target: BVDV NADL virus
relation_operator: =
observed_measurement: 5.51

smiles_record: Cc1ccc(-n2ccc(NC(=O)c3cc(-c4cccnc4)nc4ccccc34)n2)cc1
target: BVDV NADL virus
relation_operator: =
observed_measurement: 7.70

smiles_record: COc1ccc2nc(NC(=O)c3cc(-c4cc(C)oc4C)nc4ccccc34)sc2c1
target: BVDV NADL virus
relation_operator: =
observed_measurement: 6.52

smiles_record: O=C(Nc1ccn(-c2ccccc2)n1)c1cc(-c2cc3ccccc3o2)nc2ccccc12
target: BVDV NADL virus
relation_operator: =
observed_measurement: 6.52

smiles_record: O=C(Nc1nc2c(F)cccc2s1)c1cc(-c2ccccc2)nc2ccccc12
target: BVDV NADL virus
relation_operator: =
observed_measurement: 7.00

---

System: BVDV NADL virus
assay_summary: CPE-based antiviral assay, BVDV NADL in MDBK cells (MTS/PMS)
condition_notes: selectivity index, CC50 vs EC50
Returns: string. Value is 1 if measured S.I. is below 70, and 0 if it is greater than or equal to it.

smiles_record: Cc1cccc2sc(NC(=O)c3cc(-c4cccs4)nc4c(Cl)cccc34)nc12
assigned_class: 0
//
smiles_record: Cc1cc(C)c2sc(NC(=O)c3cc(-c4ccccc4)nc4ccccc34)nc2c1
assigned_class: 0
//
smiles_record: O=C(Nc1ccccc1O)c1cc(-c2ccccc2)nc2ccccc12
assigned_class: 1
//
smiles_record: COc1ccc(-c2cc(C(=O)Nc3ccn(-c4ccccc4)n3)c3ccccc3n2)cc1F
assigned_class: 0
//
smiles_record: O=C(Nc1ccccn1)c1cc(-c2ccccc2)nc2ccccc12
assigned_class: 1
//
smiles_record: Cc1ccccc1-n1ccc(NC(=O)c2cc(-c3ccccc3)nc3ccccc23)n1
assigned_class: 1
//
smiles_record: Cc1cccc2sc(NC(=O)c3cc(-c4ccc(Cl)s4)nc4ccccc34)nc12
assigned_class: 1
//
smiles_record: Cc1ccc(-c2cc(C(=O)Nc3nc4c(C)cccc4s3)c3ccccc3n2)o1
assigned_class: 0
//
smiles_record: Cc1cccc2sc(NC(=O)c3cc(-c4cccc(F)c4)nc4ccccc34)nc12
assigned_class: 1
//
smiles_record: Cc1csc(-c2cc(C(=O)Nc3ccn(-c4ccccc4)n3)c3ccccc3n2)c1
assigned_class: 0
//
smiles_record: Cc1cc2nc(NC(=O)c3cc(-c4ccccc4)nc4ccccc34)sc2cc1C
assigned_class: 0
//
smiles_record: O=C(Nc1nc(-c2ccccc2)cs1)c1cc(-c2ccccc2)nc2ccccc12
assigned_class: 0
//
smiles_record: Cc1cccc2sc(NC(=O)c3cc(-c4ccco4)nc4ccccc34)nc12
assigned_class: 0
//
smiles_record: COc1ccc(-c2cc(C(=O)Nc3ccn(-c4ccccc4)n3)c3ccccc3n2)cc1
assigned_class: 0
//
smiles_record: O=C(Nc1ccn(-c2ccccc2)n1)c1cc(-c2ccc3ccccc3c2)nc2ccccc12
assigned_class: 0
//
smiles_record: Cc1ccc(-n2ccc(NC(=O)c3cc(-c4ccccc4)nc4ccccc34)n2)cc1
assigned_class: 0
//
smiles_record: COc1ccc2nc(NC(=O)c3cc(-c4cc(C)oc4C)nc4ccccc34)sc2c1
assigned_class: 0
//
smiles_record: Cc1ccc2nc(NC(=O)c3ccncc3)sc2c1
assigned_class: 1
//
smiles_record: Cc1cccc2sc(NC(=O)c3cc(-c4ccncc4)nc4ccccc34)nc12
assigned_class: 0
//
smiles_record: Cc1cc(NC(=O)c2cc(-c3ccccc3)nc3ccccc23)on1
assigned_class: 1
//
smiles_record: COc1ccc2nc(NC(=O)c3cc(-c4ccccc4)nc4ccccc34)sc2c1
assigned_class: 0
//
smiles_record: COc1ccc(NC(=O)c2cc(-c3ccccc3)nc3ccccc23)cc1
assigned_class: 1
//
smiles_record: O=C(Nc1nnc(-c2ccccc2)s1)c1cc(-c2cccs2)nc2ccc(F)cc12
assigned_class: 1
//
smiles_record: O=C(Nc1ccn(-c2ccccc2)n1)c1cc(-c2cccs2)nc2ccc(I)cc12
assigned_class: 1
//
smiles_record: COc1cccc2sc(NC(=O)c3cc(-c4cccs4)nc4ccccc34)nc12
assigned_class: 0

Where these numbers come from: paper PMC7144022
